Reference source: PubChem BioAssay (NCI)

Tested on: NCI-H522 lung
measurement.protocol: NCI tumour cell line growth inhibition, 48 h
endpoint.name: TGI

* CCCC(CC)c1c(O)c(O)c(C(CC)CCC)c(C(CC)CCC)c1C(CC)CCC (stereo not given) | > 10 µM
* OCC(Cn1cncn1)(c1ccc(F)cc1F)n1cncn1 (stereo not given) | > 100 µM
* COc1c(OC)c(O)c2c(=O)c(OC)c(-c3ccc4c(c3)OCO4)oc2c1O | > 100 µM
* COc1ccc(Oc2nc3ccc(C(F)(F)F)cc3nc2-c2ccccc2)cc1 | > 100 µM
* Cc1cccc2nc3cccc(C(=O)NCCC[N+](C)(CCCNC(=O)c4cccc5nc6cccc(C)c6nc45)Cc4c([N+](=O)[O-])ncn4C)c3nc12 | > 1100 µM
* S=c1nc2[nH]c3ccc(Br)cc3c2n[nH]1 | > 100 µM
* O=C(OCCN1CCCCC1)C(c1ccccc1)C1(O)CCSCC1 (stereo not given) | > 100 µM
* O=C(NC1(C(=O)NNc2nnc(-c3ccccc3)c(-c3ccccc3)n2)C(c2ccccc2)C(c2ccccc2)=NN1c1ccccc1)c1ccccc1 (stereo not given) | > 100 µM
* Cc1cc(=O)n2nc(CSc3nnc(N)s3)sc2n1 | > 100 µM
* CCN(CC)c1ccc(N=C2C=C(C(=O)Nc3ccc(S(C)(=O)=O)cc3)C(=O)c3ccccc32)c(C)c1 | > 100 µM

====

System: MCF7 breast
measurement.protocol: NCI tumour cell line growth inhibition, 48 h
Where a SMILES comes first, the peptide text is derived from it. [ ]: non-standard residue; d: D form. The star is where a group is joined. ξ: configuration not given here. ξD = NC(CC(=O)O)C(=O)O; Ac3c = NC1(C(=O)O)CC1; Boc = CC(C)(C)OC(=O)*; OBn = c1ccc(CO*)cc1
Listed here: items and their measured TGI.
endpoint.name: TGI

* O=C(NCCCCNCCCNC(=O)c1ccccc1)c1ccccc1 | > 100 µM
* CCOC(=O)C(NC(=O)CC(C)C)(Nc1ccc(C(F)(F)F)cc1)C(F)(F)F (configuration not stated) | > 100 µM
* O=C(NNc1cn[nH]c(=O)c1Cl)/C(=C/c1ccc2c(c1)OCO2)NC(=O)c1ccccc1 | > 100 µM
* COCN1CCN=c2c1c1c3c(c4ccccc4n23)CCC1 | > 100 µM
* Cc1cc(Nc2ccc(N=Nc3ccc(O)c4ncccc34)cc2)nc(C)n1 | 52.2 µM
* COc1ccc2c(c1)nc1n2C(N)=Nc2ccccc2S1 | > 100 µM
* O=c1[nH]c(=O)n(COCc2ccccc2)c2ccc([N+](=O)[O-])cc12 | > 100 µM
* COC(=O)C1(NC(=O)C(CC(=O)OCc2ccccc2)NC(=O)OC(C)(C)C)CC1 (configuration not stated) (Boc-[ξD](OBn)-[Ac3c]-OMe) | > 100 µM
* C[N+](C)([O-])CCCNc1c2ccccc2nc2cccc([N+](=O)[O-])c12 | 0.623 µM
* CC(=Nc1c2ccccc2nc2ccccc12)N(C)C | 78.8 µM
* CCOC(=O)C1=C(C)C(C(=O)OC)/C(=C/c2cccc3cccnc23)C1=O (configuration not stated) | > 10 µM
* CC(C)(C)n1c(=O)n(C(=O)C(Cl)(Cl)Cl)n(C(=O)C(Cl)(Cl)Cl)c1=O | > 100 µM
* N/N=C1/C(=N/O)CCc2nonc21 | > 100 µM
* COC(=O)c1ccccc1C#CCCCOS(C)(=O)=O | > 10 µM
* c1cc(C[S+]2CCCC2)ccc1C[S+]1CCCC1 | > 100 µM
* CCc1ccc(-c2ccc(=O)n(-c3ccc(S(N)(=O)=O)cc3)n2)cc1 | > 43.5 µM
* O=C1OC2(C(F)(F)F)Oc3ccccc3CN2C12CCCCC2 (configuration not stated) | > 100 µM
* OCCCCC#Cc1ccccc1C#Cc1ccccc1F | > 100 µM
* O=S1(=O)N(Cc2ccccc2)[C@@H](Cc2ccccc2)C2O[C@H]2[C@H](Cc2ccccc2)N1Cc1ccccc1 (some centres not stated) | > 7.5 µM
* CC(=O)NC1C(OCc2ccccc2)OC(CO)C(O)C1OCC(=O)NC(C)C(=O)NC(CCC(=O)NCCCCCNc1c2ccccc2nc2cccc([N+](=O)[O-])c12)C(N)=O (configuration not stated) | < 0.0001 µM
* O=c1c2ccccc2n2nnc3ccc(NCCCNCCNCCCNc4ccc5nnn6c7ccccc7c(=O)c4c56)c1c32 | 6.92 µM
* ON(CCc1ccncc1)Cc1ccccc1 | > 100 µM
